Test: AUC (0 to t) in ICR mouse at 10 mg/kg,po measured upto 24 hrs by LC-MS/MS analysis
Assay type: ADME, organism-based
Settings: in vivo
measurement kind: AUC(0-t) at 24 h (ng·h/mL)

- test smiles: "COc1ccc2c(c1)c1ncc3ccccc3c1n2CCCC(=O)NO"
  value reported: 244
- test smiles: "CN(C)CCCn1c2cc3c(cc2c2ncc4ccccc4c21)OCO3"
  value reported: 2040

---

Target: UniProt:P11388
Sequence (P11388 whole entry): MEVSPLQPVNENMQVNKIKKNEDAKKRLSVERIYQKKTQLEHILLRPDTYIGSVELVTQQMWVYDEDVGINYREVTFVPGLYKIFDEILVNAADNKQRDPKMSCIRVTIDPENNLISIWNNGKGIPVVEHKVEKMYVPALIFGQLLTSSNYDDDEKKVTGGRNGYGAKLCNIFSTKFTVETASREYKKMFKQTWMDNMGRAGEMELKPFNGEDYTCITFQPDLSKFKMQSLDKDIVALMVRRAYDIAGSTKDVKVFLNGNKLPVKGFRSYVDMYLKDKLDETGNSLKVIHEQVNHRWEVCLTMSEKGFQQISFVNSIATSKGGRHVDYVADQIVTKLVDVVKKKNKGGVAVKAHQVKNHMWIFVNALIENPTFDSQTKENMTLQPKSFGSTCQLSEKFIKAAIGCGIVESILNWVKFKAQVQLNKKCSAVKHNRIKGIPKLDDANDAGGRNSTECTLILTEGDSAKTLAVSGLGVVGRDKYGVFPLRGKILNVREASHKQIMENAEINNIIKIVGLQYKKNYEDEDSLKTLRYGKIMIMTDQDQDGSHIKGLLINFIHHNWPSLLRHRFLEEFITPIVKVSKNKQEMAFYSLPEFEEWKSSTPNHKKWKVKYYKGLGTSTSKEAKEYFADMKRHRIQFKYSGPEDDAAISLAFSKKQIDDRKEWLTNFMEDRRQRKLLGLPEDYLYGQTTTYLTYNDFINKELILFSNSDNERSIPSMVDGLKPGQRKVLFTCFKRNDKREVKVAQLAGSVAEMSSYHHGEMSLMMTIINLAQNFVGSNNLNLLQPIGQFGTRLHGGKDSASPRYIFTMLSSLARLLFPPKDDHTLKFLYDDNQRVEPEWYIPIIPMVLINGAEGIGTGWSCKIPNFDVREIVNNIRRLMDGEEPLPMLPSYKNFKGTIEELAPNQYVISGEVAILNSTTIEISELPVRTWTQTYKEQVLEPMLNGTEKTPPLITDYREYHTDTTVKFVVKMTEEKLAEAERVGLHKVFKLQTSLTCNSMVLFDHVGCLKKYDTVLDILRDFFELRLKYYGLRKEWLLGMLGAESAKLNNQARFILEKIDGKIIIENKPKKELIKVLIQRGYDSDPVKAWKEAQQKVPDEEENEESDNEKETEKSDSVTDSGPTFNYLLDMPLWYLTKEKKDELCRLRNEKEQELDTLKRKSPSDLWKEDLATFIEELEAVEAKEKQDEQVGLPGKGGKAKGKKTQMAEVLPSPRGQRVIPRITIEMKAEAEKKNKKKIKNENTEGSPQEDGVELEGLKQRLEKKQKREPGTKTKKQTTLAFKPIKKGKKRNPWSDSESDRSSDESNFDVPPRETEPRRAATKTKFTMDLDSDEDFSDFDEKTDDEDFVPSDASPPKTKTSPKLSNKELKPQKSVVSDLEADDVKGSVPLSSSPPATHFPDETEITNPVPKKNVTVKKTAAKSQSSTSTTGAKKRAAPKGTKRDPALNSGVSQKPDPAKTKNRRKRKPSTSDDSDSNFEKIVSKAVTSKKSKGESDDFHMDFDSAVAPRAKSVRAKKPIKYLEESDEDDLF
Assay: Inhibition of Topoisomerase 2 (unknown origin) using pBR322 DNA as substrate at 100 uM incubated for 15 mins by EtBr staining based agarose gel electrophoresis method relative to control
Activity calls are given as the source filed them. The rule behind the calls is not given here.

- test smiles: "CN(C)CCCn1c2cc3c(cc2c2nc(Cl)c4ccccc4c21)OCO3"
  study target: "UniProt:P11388"
  inhibition: "> 95%"
- test smiles: "CN(C)CCCn1c2cc3c(cc2c2[nH]c(=O)c4ccccc4c21)OCO3"
  study target: "UniProt:P11388"
  inhibition: "> 95%"
- test smiles: "COc1ccc2c(c1)c1ncc3ccccc3c1n2CCCN1CCN(C)CC1"
  study target: "UniProt:P11388"
  inhibition: "inactive"
- test smiles: "COc1ccc2c(c1)c1ncc3ccccc3c1n2CCCN1CCN(C(C)C)CC1"
  study target: "UniProt:P11388"
  inhibition: "inactive"
- test smiles: "COc1ccc2c(c1)c1nc(Cl)c3ccccc3c1n2CCCC(=O)NO"
  study target: "UniProt:P11388"
  inhibition: "> 95%"
- test smiles: "O=C(CCCn1c2cc3c(cc2c2ncc4ccccc4c21)OCO3)NO"
  study target: "UniProt:P11388"
  inhibition: "> 95%"
- test smiles: "COc1ccc2c(c1)c1ncc3ccccc3c1n2CCCC(=O)NO"
  study target: "UniProt:P11388"
  inhibition: "> 95%"
- test smiles: "O=C(CCCn1c2cc3c(cc2c2[nH]c(=O)c4ccccc4c21)OCO3)NO"
  study target: "UniProt:P11388"
  inhibition: "> 95%"
- test smiles: "O=C(CCCn1c2cc3c(cc2c2nc(Cl)c4ccccc4c21)OCO3)NO"
  study target: "UniProt:P11388"
  inhibition: "> 95%"
- test smiles: "CN(C)CCCn1c2cc3c(cc2c2ncc4ccccc4c21)OCO3"
  study target: "UniProt:P11388"
  inhibition: "> 95%"

Where these numbers come from: ChEMBL document CHEMBL5576135
